# TESTED_ON: Cellular tumor antigen p53 (Homo sapiens)
# PROTOCOL: TOX21_p53_BLA_p5_ratio: Tox21 HCT-116 p53 Agonism Beta-lactamase Assay, Ratio, Phase 5 (AID 2283599)
Records with an inconclusive call do not appear. Activity calls are given as the source filed them. Rule for the calls: active = hit-call score of the fitted dose curve at least 0.9, where 1 is the maximum; inconclusive = response in the unintended direction; inactive = score below 0.9.
Hi there, use one of these labels in your reply, thanks! label 1 = active, label 0 = inactive

Prompt line: What classification did NS(=O)(=O)c1cc2c(cc1Cl)NC=NS2(=O)=O end up with in this test?
Response line: label 0

Prompt line: Continue with CCCC(C)C(=O)O (configuration not stated)
Response line: label 0

Prompt line: Continue with CCC(C)C1N=C(C)C(C)S1 (configuration not stated)
Response line: label 0

Prompt line: Continue with CCCCOC(=O)/C=C\C(=O)OCCCC
Response line: label 0

Prompt line: Continue with CC(C)=CCOc1ccc(/C=C/C(=O)c2ccc(OCC=C(C)C)cc2OCC(=O)O)cc1
Response line: label 1

Prompt line: Continue with CNCC[C@@H](Oc1ccccc1C)c1ccccc1
Response line: label 0

Prompt line: Continue with C=CS(=O)(=O)O
Response line: label 0
